# ASSAYED SYSTEM: human PI3K isoform gamma (p110 gamma) (Homo sapiens, UniProt P48736)
# Sequence (P48736 whole entry, canonical isoform): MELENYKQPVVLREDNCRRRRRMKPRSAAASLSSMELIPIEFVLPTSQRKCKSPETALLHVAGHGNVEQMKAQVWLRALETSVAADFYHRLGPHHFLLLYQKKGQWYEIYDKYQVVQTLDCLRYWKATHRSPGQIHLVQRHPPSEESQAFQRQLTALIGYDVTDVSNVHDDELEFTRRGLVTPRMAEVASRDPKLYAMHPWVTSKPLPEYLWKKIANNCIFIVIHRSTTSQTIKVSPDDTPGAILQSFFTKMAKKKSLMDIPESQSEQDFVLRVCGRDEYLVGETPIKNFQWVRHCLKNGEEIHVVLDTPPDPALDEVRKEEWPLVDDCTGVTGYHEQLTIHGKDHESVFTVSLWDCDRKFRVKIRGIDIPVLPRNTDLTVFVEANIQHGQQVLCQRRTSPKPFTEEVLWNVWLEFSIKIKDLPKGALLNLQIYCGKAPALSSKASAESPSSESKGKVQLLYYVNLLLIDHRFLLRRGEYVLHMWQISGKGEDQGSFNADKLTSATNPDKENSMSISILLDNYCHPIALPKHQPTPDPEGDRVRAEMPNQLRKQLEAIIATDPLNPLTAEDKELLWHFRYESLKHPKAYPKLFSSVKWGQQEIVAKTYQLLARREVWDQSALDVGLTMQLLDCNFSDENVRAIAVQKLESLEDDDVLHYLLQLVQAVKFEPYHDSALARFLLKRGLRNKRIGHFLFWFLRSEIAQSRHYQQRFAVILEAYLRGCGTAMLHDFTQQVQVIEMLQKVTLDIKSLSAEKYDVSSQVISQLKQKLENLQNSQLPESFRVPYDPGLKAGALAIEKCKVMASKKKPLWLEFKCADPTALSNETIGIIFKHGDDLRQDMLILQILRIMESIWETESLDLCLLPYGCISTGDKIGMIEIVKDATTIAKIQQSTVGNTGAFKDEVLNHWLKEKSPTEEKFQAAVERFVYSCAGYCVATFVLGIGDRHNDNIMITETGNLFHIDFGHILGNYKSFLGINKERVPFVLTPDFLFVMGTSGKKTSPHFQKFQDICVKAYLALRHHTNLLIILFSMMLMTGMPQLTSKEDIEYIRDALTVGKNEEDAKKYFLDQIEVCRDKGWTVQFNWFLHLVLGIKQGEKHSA
# PROCEDURE DETAILS: p110 isoform selectivity scintillation proximity assay (SPA), gamma isoform
# Format: biochemical
# RUN CONDITIONS: fold potency over gamma relative to alpha, calculated from IC50 values (SPA)
READOUT LABEL: alpha/gamma

# COMPOUND, READOUT LABEL, RESULT
data = [
    ("CC(=O)Nc1cccc(-c2cc3nc(-c4cccc5[nH]ncc45)nc(N4CCOCC4)c3s2)c1 [Compound 238]", "alpha/gamma", ">10"),
    ("CN(Cc1cc2nc(-c3cccc4[nH]ncc34)nc(N3CCOCC3)c2s1)C(=O)c1ccccc1 [Compound 390]", "alpha/gamma", "<10"),
    ("c1cc(-c2nc(N3CCOCC3)c3sc(Cn4ccnc4)cc3n2)c2cn[nH]c2c1 [Compound 312]", "alpha/gamma", ">10"),
    ("CN(Cc1cc2c(N3CCOCC3)nc(-c3cnc4[nH]ccc4c3)nc2s1)S(C)(=O)=O [Compound 417]", "alpha/gamma", ">10"),
    ("O=S(=O)(Nc1cccc(O)c1)c1cc2nc(-c3cccc4[nH]ncc34)nc(N3CCOCC3)c2s1 [Compound 208]", "alpha/gamma", ">10"),
    ("c1cc2cc(-c3nc(N4CCOCC4)c4sc(-c5ccc(N6CCOCC6)nc5)cc4n3)cnc2[nH]1 [Compound 428]", "alpha/gamma", ">10"),
]
